- ASSAY_NAME: Volatility from spray deposit on non-permeable leaf cuticles
- Assay type: physicochemical
- CONDITION_LABEL: pH 4, 48 h, test substances 50 g/L, pelargonic acid 30 g/L, Vorox 130 g/L
READOUT_KIND: Volatilized fraction 48 h (%)
One number for each entry, in %.

CCCCCCCCC(=O)OCCOCCOCCOCCOCCOCCOCCOCCOC(=O)CCCCCCCC [A18, Pelargonic acid 8 EO diester, reference compound] :: 4.0
CCCCCCCCC(=O)O [Pelargonic acid, reference compound] :: 80.6
CCCCCCCCCCOCCOCCOCCOCCOCCOC(=O)CCCCCCCC :: 22.8

Below: the item to evaluate.
// returns reported Volatilized fraction 48 h for input CCCCCCCCC(=O)OCCOCCOCCOCCOCCOCCOCCOCCOC
2.8

----------
- ASSAY_NAME: Volatility from spray deposit on non-permeable leaf cuticles
- Format: physicochemical
- CONDITION_LABEL: pH 4, 48 h, test substances 50 g/L, pelargonic acid 30 g/L, Vorox 130 g/L
READOUT_KIND: Volatilized fraction 48 h (%)
Give bare numbers, in %.

CCCCCCCCC(=O)OCCOCCOCCOCCOCCOCCOC(=O)CCCCCCCC [A17, Pelargonic acid 6 EO diester, reference compound] :: 0.6
CCCCCCCCC(=O)OCCOCCOCCOCCCCCC [A10, Pelargonic acid 3 EO ester hexyl ether] :: 18.9

Below: the item to evaluate.
// returns reported Volatilized fraction 48 h for input CCCCCCCCC(=O)OCCOCCOCCOCCOCCOCCOC [A1, Pelargonic acid 6 EO ester methyl ether]
5.2

----------
- ASSAY_NAME: Volatility from spray deposit on inert wettable synthetic substrates
- Type: physicochemical
- CONDITION_LABEL: pH 4, 24 h, test substances 50 g/L, pelargonic acid 30 g/L, Vorox 130 g/L
Assign true (1) to entries whose Volatilized fraction 24 h meets or exceeds 1%; assign false (0) to the rest.

Volatilized fraction 24 h >= 1% for CCCCCCCCC(=O)OCCOCCOCCOCCCCCC ?
true (1)

Another compound to look at: CCCCCCCCC(=O)OCCOCCOCCOCCOCCOCCOCCOCCOC(=O)CCCCCCCC [A18, Pelargonic acid 8 EO diester, reference compound]
false (0)

Another compound to look at: CCCCCCCCCCOCCOCCOCCOCCOCCOC(=O)CCCCCCCC
true (1)

Another compound to look at: CCCCCCCCC(=O)OCCOCCOCCOCCOCCOCCOCCOCCOC
false (0)

Another compound to look at: CCCCCCCCC(=O)OCCOCCOCCOCCOCCOCCOC
false (0)

Another compound to look at: CCCCCCCCC(=O)O [Pelargonic acid, reference compound]
true (1)

----------
- ASSAY_NAME: Volatility from spray deposit on non-permeable leaf cuticles
- Assay type: physicochemical
- CONDITION_LABEL: pH 4, 4 h, test substances 50 g/L, pelargonic acid 30 g/L, Vorox 130 g/L
- Method: The volatility of the test substances from the spray deposit was measured time dependent. All measurements have been carried out using a concentration of 50 g/L of the test substances in the application solution. […] The volatility has been determined after the desired measurement time of 4 h, 24 h and 48 h by weighing of the substrates to obtain the remaining weight of the test substances. […]
READOUT_KIND: Volatilized fraction 4 h (%)
One number for each entry, in %.

Example entries begin here.
CCCCCCCCC(=O)OCCOCCOCCOCCOCCOCCOC(=O)CCCCCCCC [A17, Pelargonic acid 6 EO diester, reference compound] :: 0.6
CCCCCCCCC(=O)OCCOCCOCCOCCOCCOCCOCCOCCOC(=O)CCCCCCCC [A18, Pelargonic acid 8 EO diester, reference compound] :: 0.6
CCCCCCCCC(=O)OCCOCCOCCOCCCCCC [A10, Pelargonic acid 3 EO ester hexyl ether] :: 6.2

Could you report Volatilized fraction 4 h for every entry in the following list?
1. CCCCCCCCC(=O)OCCOCCOCCOCCOCCOCCOC [A1, Pelargonic acid 6 EO ester methyl ether]
2. CCCCCCCCC(=O)OCCOCCOCCOCCOCCOCCOCCOCCOC [A2, Pelargonic acid 8 EO ester methyl ether]
3. CCCCCCCCC(=O)O [Pelargonic acid, reference compound]
4. CCCCCCCCCCOCCOCCOCCOCCOCCOC(=O)CCCCCCCC [A9, Pelargonic acid 5 EO ester decyl ether]

[1.5, 1.7, 55.7, 8.6]
